biological target: full-length proMMP9(1-707) activation by catalytic MMP3 (Homo sapiens, UniProt P14780, R574P); construct: MMP3: E. coli; test: proMMP9/MMP3 P126 Activation Assay
log10(IC50) by entry:
Readout label: log10(IC50) (log10 of the value in nM)

[
  {
    "Molecule": "CCn1c(C)nc2c3nc(Nc4cc(C(N)=O)ccc4OC(C)C)sc3ccc21 [Example 34]",
    "log10(IC50)": 2.04
  },
  {
    "Molecule": "COc1ccc(F)cc1Nc1nc2c(ccc3c2cnn3C)s1 [Example 93]",
    "log10(IC50)": 2.26
  },
  {
    "Molecule": "CCn1c(C)nc2ccc3sc(Nc4cc(S(N)(=O)=O)ccc4OC(F)(F)F)nc3c21 [Example 122]",
    "log10(IC50)": 2.81
  },
  {
    "Molecule": "COc1ccc(C#N)cc1Nc1nc2c(ccc3c2cnn3C)s1 [Example 112]",
    "log10(IC50)": 2.20
  },
  {
    "Molecule": "CC(C)Oc1ccc(F)cc1Nc1nc2c(ccc3c2ncn3C)s1 [Example 59]",
    "log10(IC50)": 2.65
  },
  {
    "Molecule": "CC(C)Oc1ccc(C(N)=O)cc1Nc1nc2c(ccc3nc(N)sc32)s1 [Example 5]",
    "log10(IC50)": 2.96
  },
  {
    "Molecule": "COc1ccc(S(=O)(=O)N2CCOCC2)cc1Nc1nc2c(ccc3c2ncn3C)s1 [Example 81]",
    "log10(IC50)": 2.88
  },
  {
    "Molecule": "CC(C)Oc1ccc(S(C)(=O)=O)cc1Nc1nc2c(ccc3ncn(CC(F)(F)F)c32)s1 [Example 146]",
    "log10(IC50)": 2.90
  },
  {
    "Molecule": "CCn1c(C)nc2ccc3sc(Nc4cc(S(C)(=O)=O)ccc4OC)nc3c21 [Example 133]",
    "log10(IC50)": 2.45
  },
  {
    "Molecule": "COc1ccccc1Nc1nc2c(ccc3nc(C)n(C)c32)s1 [Example 124]",
    "log10(IC50)": 2.67
  },
  {
    "Molecule": "CC(C)Oc1ccc(C(N)=O)cc1Nc1nc2c(s1)CCc1cnccc1-2 [Example 115]",
    "log10(IC50)": 3.20
  },
  {
    "Molecule": "CC(C)Oc1ccc(C(N)=O)cc1Nc1nc2c(ccc3cnccc32)s1 [Example 90]",
    "log10(IC50)": 2.30
  },
  {
    "Molecule": "COc1ccc(S(=O)(=O)N(C)C)cc1Nc1nc2c(ccc3c2ncn3C)s1 [Example 55]",
    "log10(IC50)": 2.72
  },
  {
    "Molecule": "CCOc1ccccc1Nc1nc2c(ccc3sc(Nc4ccccc4OCC)nc32)s1 [Example 4]",
    "log10(IC50)": 3.67
  },
  {
    "Molecule": "CCCn1c(C)nc2c3nc(Nc4cc(C(N)=O)ccc4OC(C)C)sc3ccc21 [Example 36]",
    "log10(IC50)": 2.48
  },
  {
    "Molecule": "COc1ccc(NC(C)=O)cc1Nc1nc2c(ccc3c2ncn3C)s1 [Example 49]",
    "log10(IC50)": 3.11
  },
  {
    "Molecule": "Cc1cc2ccc3sc(Nc4cc(C(N)=O)ccc4OC(C)C)nc3c2o1 [Example 38]",
    "log10(IC50)": 3.18
  },
  {
    "Molecule": "COc1ccc(C(F)(F)F)cc1Nc1nc2c(ccc3c2ncn3C)s1 [Example 50]",
    "log10(IC50)": 3.04
  },
  {
    "Molecule": "COc1ccc(C#N)cc1Nc1nc2c(ccc3c2ccn3C)s1 [Example 85]",
    "log10(IC50)": 2.18
  },
  {
    "Molecule": "COc1ccc(F)cc1Nc1nc2c(ccc3nc(C)n(C)c32)s1 [Example 125]",
    "log10(IC50)": 2.41
  },
  {
    "Molecule": "COc1ccc(C(N)=O)cc1Nc1nc2c(ccc3c2cnn3C)s1 [Example 95]",
    "log10(IC50)": 2.23
  },
  {
    "Molecule": "COc1ccc(N)cc1Nc1nc2c(ccc3c2ncn3C)s1 [Example 79]",
    "log10(IC50)": 2.59
  },
  {
    "Molecule": "CCN(CC)S(=O)(=O)c1ccc(OC)c(Nc2nc3c(ccc4c3ncn4C)s2)c1 [Example 71]",
    "log10(IC50)": 3.18
  },
  {
    "Molecule": "Nc1nc2c(ccc3sc(Nc4cccc(C(=O)O)c4)nc32)[nH]1 [Example 15]",
    "log10(IC50)": 3.54
  },
  {
    "Molecule": "CCn1c(C)nc2ccc3sc(Nc4cc(F)ccc4OC)nc3c21 [Example 121]",
    "log10(IC50)": 2.49
  },
  {
    "Molecule": "Cn1cnc2c3nc(Nc4ccccc4OCC(F)(F)F)sc3ccc21 [Example 43]",
    "log10(IC50)": 3.40
  }
]

* * *

Kd by entry:
Molecular target: proMMP9(20-445;ΔFnII) (SEQ ID NO:6) (Homo sapiens, UniProt P14780, DEL216-390)
Construct: start methionine (N)
Sequence (P14780 with tags, fused parts or gaps DEL216-390): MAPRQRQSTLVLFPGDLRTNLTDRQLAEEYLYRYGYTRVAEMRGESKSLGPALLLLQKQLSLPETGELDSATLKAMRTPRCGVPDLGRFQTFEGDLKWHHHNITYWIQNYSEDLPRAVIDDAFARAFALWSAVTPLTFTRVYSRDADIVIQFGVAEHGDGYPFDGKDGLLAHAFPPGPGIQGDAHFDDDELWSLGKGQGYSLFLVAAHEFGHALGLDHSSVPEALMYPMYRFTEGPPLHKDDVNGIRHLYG
Experiment: ThermoFluor binding assay with proMMP9(20-445;ΔFnII)

[
  {
    "Substance smiles": "COc1ccc(S(N)(=O)=O)cc1Nc1nc2c(ccc3c2cnn3C)s1",
    "Kd (nM)": 750
  },
  {
    "Substance smiles": "Cn1ncc2c3nc(Nc4cc(S(N)(=O)=O)ccc4OC(F)(F)F)sc3ccc21",
    "Kd (nM)": 790
  },
  {
    "Substance smiles": "Cc1nc2ccc3sc(Nc4cc(S(N)(=O)=O)ccc4OC(C)C)nc3c2n1C",
    "Kd (nM)": 910
  },
  {
    "Substance smiles": "COc1ccncc1Nc1nc2c(ccc3ncn(CC(F)(F)F)c32)s1",
    "Kd (nM)": 1400
  },
  {
    "Substance smiles": "CCn1c(C)nc2ccc3sc(Nc4cc(S(C)(=O)=O)ccc4OC(C)C)nc3c21",
    "Kd (nM)": 1200
  },
  {
    "Substance smiles": "NC(=O)c1ccc(OC(F)(F)F)c(Nc2nc3c(ccc4cnccc43)s2)c1",
    "Kd (nM)": 1200
  }
]

* * *

target: proMMP9(67-444;ΔFnII) (SEQ ID NO:5) (Homo sapiens, UniProt P14780, DEL216-390); construct: start methionine (N); test: ThermoFluor binding assay with proMMP9(67-444;ΔFnII)
Readout label: log10 of Kd (log10 of the value in µM)

[
  {
    "Compound": "NC(=O)c1ccc(OC(F)(F)F)c(Nc2nc3c(ccc4cnccc43)s2)c1 [Example 114]",
    "log10 of Kd": 0.66
  },
  {
    "Compound": "Cc1nc2ccc3sc(Nc4cc(C(=O)O)ccc4OC(C)C)nc3c2s1 [Example 24]",
    "log10 of Kd": -0.28
  },
  {
    "Compound": "COc1ccc(C#N)cc1Nc1nc2c(ccc3c2ncn3C)s1 [Example 67]",
    "log10 of Kd": -1.11
  },
  {
    "Compound": "COc1c(F)cc(C(N)=O)cc1Nc1nc2c(ccc3c2ncn3C)s1 [Example 48]",
    "log10 of Kd": -0.09
  },
  {
    "Compound": "COc1ccc(-c2cn[nH]c2)cc1Nc1nc2c(ccc3c2ncn3C)s1 [Example 70]",
    "log10 of Kd": -0.92
  },
  {
    "Compound": "CC(C)Oc1ccccc1Nc1nc2c(ccc3c2ncn3C)s1 [Example 32]",
    "log10 of Kd": -0.27
  },
  {
    "Compound": "CC(C)Oc1ccc(S(N)(=O)=O)cc1Nc1nc2c(ccc3c2cnn3C)s1 [Example 102]",
    "log10 of Kd": -0.17
  },
  {
    "Compound": "CCn1c(C)nc2ccc3sc(Nc4cc(C(N)=O)ccc4OC(C)C)nc3c21 [Example 35]",
    "log10 of Kd": -0.82
  },
  {
    "Compound": "COc1cc(C)c(C(N)=O)cc1Nc1nc2c(ccc3c2ncn3C)s1 [Example 56]",
    "log10 of Kd": 0.52
  },
  {
    "Compound": "COc1ccccc1Nc1nc2c(s1)CCCc1nc(N)sc1-2 [Example 14]",
    "log10 of Kd": -0.26
  },
  {
    "Compound": "CCn1c(C)nc2ccc3sc(Nc4cc(F)ccc4OC(C)C)nc3c21 [Example 139]",
    "log10 of Kd": -0.02
  },
  {
    "Compound": "CCn1cc2c(ccc3sc(Nc4cc(S(C)(=O)=O)ccc4OC)nc32)n1 [Example 107]",
    "log10 of Kd": 0.18
  },
  {
    "Compound": "COc1ccncc1Nc1nc2c(ccc3ncn(CC(F)(F)F)c32)s1 [Example 153]",
    "log10 of Kd": -0.22
  },
  {
    "Compound": "CCn1ncc2c3nc(Nc4cc(S(C)(=O)=O)ccc4OC)sc3ccc21 [Example 106]",
    "log10 of Kd": -0.28
  },
  {
    "Compound": "Cn1ncc2c3nc(Nc4cc(C(N)=O)ccc4OC(F)(F)F)sc3ccc21 [Example 113]",
    "log10 of Kd": 0.18
  },
  {
    "Compound": "COc1ccncc1Nc1nc2c(ccc3c2ncn3C)s1 [Example 149]",
    "log10 of Kd": -1.41
  },
  {
    "Compound": "COc1ccc(C(N)=O)cc1Nc1nc2c(ccc3c2ncn3C)s1 [Example 39]",
    "log10 of Kd": -1.28
  },
  {
    "Compound": "CCOc1ccncc1Nc1nc2c(ccc3nc(C)n(CC)c32)s1 [Example 155]",
    "log10 of Kd": -0.85
  }
]
